# ASSAY_TEXT: probe aEGFR binding to arrayed compounds – biochemical, biotinylated probe, 635/667 nm fluorescence, primary screen (AID 1097);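 note: probe is a biotinylated anti-EGFR antibody binding compounds printed on slides; score combines fluorescence near 667 nm and signal to noise of each spot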
# MEASUREMENT_CONTEXT: small-molecule microarray, higher = more signal
Reported composite z-score values for the following compounds.
EXPERIMENTAL_ENDPOINT: composite z-score

>>> val("COC(=O)C1=CC(CCCO)=CC(c2cccs2)N(Cc2cccc(OC(F)(F)F)c2)C=C1C(=O)OC (stereo not drawn)")
0.679
>>> val("CCOC(=O)C1=C[C@@H](c2ccccc2)N(S(=O)(=O)c2ccc(C)cc2)[C@H]1c1ccc(OC)cc1")
0.756
>>> val("COCCOC(=O)N1C(=O)[C@@]2(c3cc(C#CC4(O)CCCCCC4)ccc31)[C@H](c1ccc(O)cc1)N1[C@H](c3ccccc3)[C@H](c3ccccc3)OC(=O)[C@H]1[C@@H]2C(=O)N1CCN(c2ncccn2)CC1")
-0.0234
